Test system: C. dubliniensis T-99
Assay: MIC80 broth double-dilution assay
Assay type: cell-based
Conditions: YPAD medium, 30° C., 24 h
Kindly state MIC80 against C. dubliniensis T-99 for each of the entries shown.
Respond with the bare value in µg/mL.

Please look up its MIC80 against C. dubliniensis T-99: `O=C(Cc1ccccc1Nc1c(Cl)cccc1Cl)NC[C@](O)(Cn1cncn1)c1ccc(F)cc1F`
4

Which MIC80 against C. dubliniensis T-99 value belongs to `CC(C)Cc1ccc([C@H](C)C(=O)NC[C@](O)(Cn2cncn2)c2ccc(F)cc2F)cc1` ?
0.06

Recorded MIC80 against C. dubliniensis T-99 of `COc1ccc2cc([C@@H](C)C(=O)NC[C@](O)(Cn3cncn3)c3ccc(F)cc3F)ccc2c1` , please.
2
